- Test system: OCI-Ly10
- procedure-details: cells
- test-parameters: Homo sapiens
pIC50: −log10 of the molar value.
parameter: pIC50

molecule: Nc1ncnc2c1c(-c1ccc(Oc3ccccc3)cc1)nn2C1CCN(C2CCN(CC#Cc3ccc4c(c3)CN(C3CCC(=O)NC3=O)C4=O)CC2)CC1 (stereo not drawn)
pIC50: 8.23

a: Nc1ncnc2c1c(-c1ccc(Oc3ccccc3)cc1)nn2[C@@H]1CCCN(C(=O)CC(=O)NCC#CCN2CCN(CC#Cc3ccc4c(c3)CN(C3CCC(=O)NC3=O)C4=O)CC2)C1 (stereo partly drawn)
b: Nc1ncnc2c1c(-c1ccc(Oc3ccccc3)cc1)nn2[C@@H]1CCCN(C(=O)CCC(=O)N2CCN(CC#Cc3ccc4c(c3)CN(C3CCC(=O)NC3=O)C4=O)CC2)C1 (stereo partly drawn)
Qu. Higher pIC50: a or b ? Give the label under which the chosen entry appears.
Ans. b
(b: 7.89, a: 7.40)
